System: TPA-induced ear oedema
PROTOCOL DETAILS: Anti-inflammatory activity after a single topical administration in TPA-induced ear oedema
Type: in vivo, mouse
CONDITION DETAILS: compound 1% in TPA 0.01% solution, single topical application, ear thickness at T6 h
Here the recorded Ear oedema Mean is given for each entry.
Provide a numeric answer; units are not to be included.

// worked examples, Ear oedema Mean included
Which Ear oedema Mean value belongs to "CCOC(=O)Oc1ccccc1C(=O)OOC(=O)c1ccccc1OC(=O)OCC" ?
13.80

Which Ear oedema Mean value belongs to "CC(C)OC(=O)Oc1ccccc1C(=O)OOC(=O)c1ccccc1OC(=O)OC(C)C" ?
9.60

Which Ear oedema Mean value belongs to "CCOC(=O)Oc1ccccc1C(=O)OOC(=O)c1ccccc1" ?
24.80

Now consider the entry below.
Which Ear oedema Mean value belongs to "CC(C)OC(=O)Oc1ccccc1C(=O)OOC(=O)c1ccccc1" ?
20.40

====

Tested on: TPA-induced ear oedema
PROTOCOL DETAILS: Anti-inflammatory activity after a single topical administration in TPA-induced ear oedema
Format: in vivo, mouse
CONDITION DETAILS: compound 2.5% in TPA 0.01% solution, single topical application, T6 h
PROPERTY: Inhibition vs TPA (%)
Reply numerically in %, unit not repeated.

// worked examples, Inhibition vs TPA (%) included
Form field: Inhibition vs TPA (%) recorded for CCOC(=O)Oc1ccccc1C(=O)OOC(=O)c1ccccc1 [Example 1] with TPA-induced ear oedema (enter value)
29.9

Form field: Inhibition vs TPA (%) recorded for CCOC(=O)Oc1ccccc1C(=O)OOC(=O)c1ccccc1OC(=O)OCC [Example 3] with TPA-induced ear oedema (enter value)
66.1

Form field: Inhibition vs TPA (%) recorded for CC(C)OC(=O)Oc1ccccc1C(=O)OOC(=O)c1ccccc1OC(=O)OC(C)C [Example 6] with TPA-induced ear oedema (enter value)
78.6

Continuing:
Form field: Inhibition vs TPA (%) recorded for CC(C)OC(=O)Oc1ccccc1C(=O)OOC(=O)c1ccccc1 [Example 5] with TPA-induced ear oedema (enter value)
44.6
